- testedSystem: F508del CFTR (Homo sapiens, UniProt P13569, DEL508-508)
- Construct: expressed in transfected cells; host or cells: CFBE41o- cells overexpressing F508del CFTR and HS-YFP (YFP-H148Q/I152L), a gift from N. Pedemonte, Gaslini Institute
- Sequence (P13569 with tags, fused parts or gaps DEL508-508): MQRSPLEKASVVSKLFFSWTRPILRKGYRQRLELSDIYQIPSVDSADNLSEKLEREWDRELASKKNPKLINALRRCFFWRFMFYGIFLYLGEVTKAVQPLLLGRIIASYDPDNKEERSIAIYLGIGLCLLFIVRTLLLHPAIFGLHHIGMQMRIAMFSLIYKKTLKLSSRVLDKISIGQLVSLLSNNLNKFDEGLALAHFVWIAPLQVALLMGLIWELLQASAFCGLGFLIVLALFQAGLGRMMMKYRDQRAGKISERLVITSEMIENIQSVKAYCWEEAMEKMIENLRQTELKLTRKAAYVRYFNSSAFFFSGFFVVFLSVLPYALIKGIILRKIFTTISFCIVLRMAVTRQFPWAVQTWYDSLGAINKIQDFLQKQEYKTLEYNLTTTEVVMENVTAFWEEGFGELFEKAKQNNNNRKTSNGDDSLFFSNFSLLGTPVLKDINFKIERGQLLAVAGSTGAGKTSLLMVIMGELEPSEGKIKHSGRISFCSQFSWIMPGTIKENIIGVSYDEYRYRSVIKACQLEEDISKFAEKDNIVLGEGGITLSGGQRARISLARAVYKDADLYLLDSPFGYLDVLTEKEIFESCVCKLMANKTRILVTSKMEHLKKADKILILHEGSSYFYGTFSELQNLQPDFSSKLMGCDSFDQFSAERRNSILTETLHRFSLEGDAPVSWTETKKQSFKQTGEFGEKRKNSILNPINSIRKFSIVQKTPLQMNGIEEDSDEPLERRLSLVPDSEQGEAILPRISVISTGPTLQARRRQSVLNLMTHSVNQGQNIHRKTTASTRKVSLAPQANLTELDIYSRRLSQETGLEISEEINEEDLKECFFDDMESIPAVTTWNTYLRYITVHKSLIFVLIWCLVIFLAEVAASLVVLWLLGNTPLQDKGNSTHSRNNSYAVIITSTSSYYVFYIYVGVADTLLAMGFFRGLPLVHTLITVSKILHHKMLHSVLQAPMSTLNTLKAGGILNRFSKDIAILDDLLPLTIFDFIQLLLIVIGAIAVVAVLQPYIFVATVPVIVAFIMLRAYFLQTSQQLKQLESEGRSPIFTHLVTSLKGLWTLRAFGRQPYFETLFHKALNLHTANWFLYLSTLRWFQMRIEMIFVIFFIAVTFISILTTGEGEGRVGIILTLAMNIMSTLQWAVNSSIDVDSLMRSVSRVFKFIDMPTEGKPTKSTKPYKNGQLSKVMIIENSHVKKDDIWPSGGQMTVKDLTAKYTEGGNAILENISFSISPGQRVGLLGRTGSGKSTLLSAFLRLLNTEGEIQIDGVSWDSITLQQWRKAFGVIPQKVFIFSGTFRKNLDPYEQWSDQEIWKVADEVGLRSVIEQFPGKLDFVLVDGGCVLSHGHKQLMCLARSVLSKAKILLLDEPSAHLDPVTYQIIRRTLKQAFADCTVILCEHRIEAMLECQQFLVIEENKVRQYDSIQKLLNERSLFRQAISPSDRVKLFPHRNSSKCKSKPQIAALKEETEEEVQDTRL
- protocolDetails: F508del CFTR functional rescue (corrector) HS-YFP single-cell assay
- Format: cell-based
- experimentalConditions: CFBE41o- YFP-F508del cells, 48 h incubation, 200 nM
valueKind: F508del CFTR rescue (corrector) activity

// lookup F508del CFTR rescue (corrector) activity for Cc1coc2c(-c3ccccc3)cc3c(C(C)C)cc(=O)oc3c12
inactive

Please give the measured F508del CFTR rescue (corrector) activity for this compound: Cc1coc2c(-c3ccccc3)cc3c(C4CC4)cc(=O)oc3c12
inactive

Which measured F508del CFTR rescue (corrector) activity value corresponds to Cc1cc(=O)oc2c1cc(-c1ccccc1)c1occ(C)c12 ?
inactive

* * *

- System: salmon testes DNA
- protocolDetails: Photoadduct formation with DNA under UVA irradiation (TLC analysis)
- experimentalConditions: 15 J/cm2 UVA
valueKind: photoadduct formation with DNA upon UVA irradiation

Which value of photoadduct formation with DNA upon UVA irradiation has been reported for Cc1cc2c(-c3ccccc3)cc(=O)oc2c2c(C)coc12 in the records?
only the unchanged bands

What does the data say about its photoadduct formation with DNA upon UVA irradiation? Entry: Cc1cc(=O)oc2c1cc(-c1ccccc1)c1occ(C)c12
only the unchanged bands

Any idea what photoadduct formation with DNA upon UVA irradiation was measured for Cc1cc(=O)oc2c1cc(-c1ccc(N)cc1)c1occ(C)c12 ?
only the unchanged bands

* * *

Give CL/F for every item shown.
- protocolDetails: In vivo oral pharmacokinetics in mice
- experimentalConditions: c57BL/6 male mice, 20 mg/kg gavage, in water
The response must be a number in mL/h/g with no trailing unit.

Sample Cc1cc(=O)oc2c1cc(-c1ccc(N)cc1)c1occ(C)c12 — what was its CL/F?
0.0083

Entry CCc1cc2c(C(C)C)cc(=O)oc2c2c(C)coc12 : reported CL/F = ?
0.0633

# CL/F lookup, item CS(=O)(=O)O.Cc1cc(=O)oc2c1cc(-c1ccc(N)cc1)c1occ(C)c12 [pANDMA mesylate]
0.0091

# lookup: CL/F of Cc1cc2c(-c3ccccc3)cc(=O)oc2c2c(C)coc12
0.0014
